Assignment: determine reported Papp B→A for the given molecules.
test_method_notes: Caco-2 permeability
Type: in vitro ADME
measurement_conditions: human, B-A
Answers are plain numbers, in ×10⁻⁶ cm/s.

Reference set (2 entries):
molecule	measured_quantity	display_unit	value_measured
O=C(NCc1ccc2c(c1)OCO2)c1c(Cl)cccc1Cl [Control 1, reference compound]	Papp B→A	×10⁻⁶ cm/s	11.7
COc1ccc(CNC(=O)c2c(Cl)ccnc2OCC2CC2)cc1F	Papp B→A	×10⁻⁶ cm/s	10.7

Alright, here's another molecule for you.
Record `COc1ccc(CNC(=O)c2c(Cl)cc[n+]([O-])c2OCC2CC2)cc1F` . Reported Papp B→A: 13.1
